Cited source for all entries: PubChem BioAssay (EPA / NIEHS)

# Read-out: Urokinase-type plasminogen activator receptor (uPAR), PLAUR (gene 5329)
# MEASUREMENT_DESCRIPTION: BSK_CASM3C_uPAR: BioMAP Diversity Plus: CASM3C Assay for Urokinase-type plasminogen activator receptor (uPAR) Biomarker Activity (AID 2283054);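 further: cell-surface uPAR protein level quantified by ELISA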
# COND: primary human coronary artery smooth muscle cells; actives raise or lower the signal
Calls of active or inactive are those of the source. How the source made its calls: active means hit-call score of the fitted dose curve at least 0.9, where 1 is the maximum; inactive means score below 0.9.
The reply should name one outcome from TRUE (active), FALSE (inactive)

Field: outcome | Entry: CCCCCCCCCCCCCCCCCC[N+](C)(C)C
TRUE

Same question for COc1ccc(C(=O)c2ccccc2O)c(O)c1 please.
FALSE

Same question for COc1cc(CNC(=O)CCCC/C=C/C(C)C)ccc1O please.
FALSE

Same question for CN(C)c1ccc(C(c2ccccc2)c2ccc(N(C)C)cc2)cc1 please.
FALSE
